System: RAW264.7
Assay: Cytotoxicity against mouse RAW264.7 cells assessed as cell viability at 10 to 100 uM after 24 hrs by MTS assay
Assay type: cell-based
Details: raw264.7, 24 h
PROPERTY_LABEL: Activity

In [3]: df
Out[3]:
                            chemical_smiles  target_of_assay  property_label  value_reported
0  Cc1cc2c(c(=O)o1)C(=O)[C@@H]1[C@@H](C)[C@]3(O)CC(=O)C(C)(C)C(=O)[C@@]3(O)[C@@H](O)[C@@]1(C)O2         RAW264.7        Activity       Non-toxic
1  Cc1oc(=O)c2c(c1C)O[C@@]1(C)[C@@H]([C@@H](C)[C@]3(O)CC(=O)C(C)(C)C(=O)[C@@]3(O)[C@H]1O)[C@H]2O         RAW264.7        Activity       Non-toxic
2  Cc1oc(=O)c2c(c1C)O[C@@]1(C)[C@H](C2=O)[C@@H](C)[C@]2(O)CC(=O)C(C)(C)C(=O)[C@@]2(O)[C@H]1O         RAW264.7        Activity       Non-toxic
3  Cc1oc(=O)c2c(c1C)O[C@@]1(C)[C@H](C2)[C@@H](C)[C@]2(O)CC(=O)C(C)(C)C(=O)[C@@]2(O)[C@H]1O         RAW264.7        Activity       Non-toxic
